The measurements presented in this section are drawn from patent US20150353608A1.

Quick list: pKd per entry.
target: Fc region prepared from human monoclonal IgG by papain digestion (human); assay: SPR, Fc immobilized
pKd: −log10 of the molar value.

[
  {
    "binder": "DAAWHLGELVWATYYDPETGTWAPDWRLMQGQ [polypeptide pep11]",
    "pKd": 6.29
  },
  {
    "binder": "DAAWHLGELVWATYYDPETGTWLPDWQTMAQK [polypeptide pep21]",
    "pKd": 7.00
  },
  {
    "binder": "DAAWHLGELVWATYYDPETGTWQPDWLYMTTR [polypeptide pep14]",
    "pKd": 6.92
  }
]
